Values from PubChem BioAssay (Tox21)

Target: Thyrotropin receptor (Homo sapiens)
Test: qHTS assay to identify small molecule agonists of the thyroid stimulating hormone receptor (TSHR) signaling pathway (AID 1224843); also: % is scaled to controls: 0 for no effect and ±100 for the full control effect; nearly all actives have a fitted effect of over 45% in size
Conditions: TSHR-HEK293 cells, cAMP HTRF, agonist mode, 30 min; series mostly up to 92.4 µM
Description: National Center for Advancing Translational Sciences [NCATS] NIH Chemical Genomics Center [NCGC] U.S. Environmental Protection Agency [EPA] National Institutes of Environmental Health Sciences [NIEHS] National Toxicology Program [NTP] […] TSHR-Hek293 cells were dispensed at 800 cells/4uL/well in 1536-well white plates using a Multidrop dispenser. […] After 1 hr incubation at room temperature, the fluorescence intensity in the plates was measured using an Envision plate reader. […]
Results filed as inconclusive are left out. Active and inactive are the calls of the source. Calls follow the shape of the full dose curve.

CHEMICAL STRING: Cc1nc(-c2ccc(Cl)cc2)oc1COC(C)(C)C(=O)O
activation: inactive
//
CHEMICAL STRING: C=C(CC)C(=O)c1ccc(OCC(=O)O)c(Cl)c1Cl
activation: inactive
//
CHEMICAL STRING: COc1cc2nc(N3CCN(C(=O)c4ccco4)CC3)nc(N)c2cc1OC
activation: -0.792% [at 19 µM] (inactive)
//
CHEMICAL STRING: Nc1ccc(Oc2ccc(Cl)cc2)cc1
activation: inactive
//
CHEMICAL STRING: CCCCC/C=C\C/C=C\CCCCCCCC(=O)O
activation: inactive
//
CHEMICAL STRING: CC(C)OC(=O)C(O)(CC(=O)O)CC(=O)O
activation: inactive

* * *

test: qHTS assay for identifying genotoxic compounds that show differential cytotoxicity against isogenic chicken DT40 cell lines with known DNA damage response pathways - Rev3 mutant cell line (AID 743014); conditions: chicken DT40 Rev3-/- viability, CellTiter-Glo, 40 h; series mostly up to 68.4 µM; also: nearly all actives have a fitted effect of over 55% in size
Records with an inconclusive call do not appear. Active and inactive are the calls of the source. Calls follow the shape of the dose curve; as a rule, active = well fitted cell-killing curve with a large enough effect in the repeat runs; inconclusive = weak or mixed curves, or effect the other way; inactive = no such curve, though single readings can be large or run the other way.
Classes used: active, inactive

CHEMICAL STRING: Clc1sc(Cl)c(Cl)c1Cl
CATEGORY LABEL: inactive

CHEMICAL STRING: COc1c(C)c2c(c(O)c1C/C=C(\C)CCC(=O)OCCN1CCOCC1)C(=O)OC2
CATEGORY LABEL: active

CHEMICAL STRING: CC/C=C\CCCCCO
CATEGORY LABEL: inactive

CHEMICAL STRING: O=C(O)CCN(C1(C(=O)NO)CCCC1)S(=O)(=O)c1ccc(Oc2ccc(F)cc2)cc1
CATEGORY LABEL: inactive

CHEMICAL STRING: CCCCCCCCCCCCOCCOCCOCCOCCOCCOCCOCCOCCOCCO
CATEGORY LABEL: active

CHEMICAL STRING: S=C([S-])NCCNC(=S)[S-].S=C([S-])NCCNC(=S)[S-].[Mn+2].[Zn+2]
CATEGORY LABEL: active

* * *

test: qHTS assay to identify small molecule agonists of the vitamin D receptor (VDR) signaling pathway - cell viability counter screen (AID 743224); conditions: VDR-bla HEK293T viability, CellTiter-Glo luminescence, 16 h; series mostly up to 62.6 µM; also: nearly all actives have a fitted effect of over 50% in size
Results filed as inconclusive are left out. Calls of active or inactive are those of the source. Calls follow the shape of the dose curve; as a rule, active = well fitted cell-killing curve with a large enough effect in the repeat runs; inconclusive = weak or mixed curves, or effect the other way; inactive = no such curve, though single readings can be large or run the other way.
Classes used: active, inactive

CHEMICAL STRING: c1ccsc1
CATEGORY LABEL: inactive
--
CHEMICAL STRING: O=C(Oc1ccccc1)Oc1ccccc1
CATEGORY LABEL: inactive
--
CHEMICAL STRING: O=C1CCc2cc(OCCCCc3nnnn3C3CCCCC3)ccc2N1
CATEGORY LABEL: inactive
--
CHEMICAL STRING: CCn1c2ccccc2c2cc([N+](=O)[O-])ccc21
CATEGORY LABEL: inactive
--
CHEMICAL STRING: O=C(O)c1cc(=O)c2ccccc2o1
CATEGORY LABEL: inactive
--
CHEMICAL STRING: CCCCCC/C=C\CCCCCCCC(=O)O
CATEGORY LABEL: inactive
--
CHEMICAL STRING: CCCC[P+](C)(CCCC)CCCC
CATEGORY LABEL: inactive
--
CHEMICAL STRING: CNC(=O)c1ccccc1Sc1ccc2c(/C=C/c3ccccn3)n[nH]c2c1
CATEGORY LABEL: active
